Target: AQ STING (G230A-R293Q) (Homo sapiens, UniProt Q86WV6, G230A/H232R/R293Q)
Construct: truncated human WT STING or AQ STING (amino acid residues 140-343); 8xHis (N, cleaved yes); SUMO (N, cleaved yes); made in house; host or cells: E. coli Rosetta-gami B (DE3)
Sequence (Q86WV6 140-343 G230A/H232R/R293Q): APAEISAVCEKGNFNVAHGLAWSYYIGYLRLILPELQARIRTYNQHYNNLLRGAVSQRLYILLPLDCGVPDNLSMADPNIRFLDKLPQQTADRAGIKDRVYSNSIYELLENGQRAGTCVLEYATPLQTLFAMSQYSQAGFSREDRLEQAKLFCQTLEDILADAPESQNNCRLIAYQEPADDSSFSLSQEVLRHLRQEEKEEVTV
Assay: Differential Scanning Fluorimetry with AQ STING
Type: binding
Settings: thermal shift vs STING apoprotein; 150 μM CDN; 0.1 mg/ml truncated human AQ STING; SYPRO Orange; read-out: DSF ΔTm (° C.) AQ STING
Quick rule for you: ΔTm at 150 µM at 20 °C or higher means Y, lower means N.

Task item: Does Nc1nc2c(ncn2[C@@H]2O[C@@H]3OCP(=O)(O)O[C@H]4[C@@H](O)[C@H](n5cnc6c(N)ncnc65)O[C@@H]4COP(=O)(O)O[C@@H]2[C@@H]3O)c(=O)[nH]1 have a reported ΔTm at 150 µM of at least 20 °C?
Reply: N

Task item: Next up: Nc1ncc2ncn([C@@H]3O[C@@H]4COP(=O)(O)O[C@@H]5[C@H](O)[C@@H](OCP(=O)(O)O[C@H]4[C@H]3O)O[C@H]5n3cnc4c(=O)[nH]c(N)nc43)c2n1
Reply: N

Task item: Try this compound next: Nc1nc2c(ncn2[C@@H]2O[C@@H]3COP(=O)(S)O[C@@H]4[C@@H](OCP(=O)(O)O[C@@H]2[C@@H]3O)O[C@@H](n2cnc3c(N)ncnc32)[C@@H]4O)c(=O)[nH]1 (some centres unmarked)
Reply: N

Task item: And the next one, Nc1ncnc2c1ncn2[C@@H]1O[C@@H]2COP(=O)(O)O[C@@H]3[C@H](O)[C@@H](COCP(=O)(O)O[C@H]2[C@H]1O)O[C@H]3n1cnc2c(N)ncnc21 ?
Reply: N

Task item: Entry to check: Nc1nc2c(nnn2[C@@H]2O[C@@H]3OCP(=O)(O)O[C@H]4[C@H](O)[C@H](n5cnc6c(N)ncnc65)O[C@@H]4COP(=O)(O)O[C@@H]2[C@@H]3O)c(=O)[nH]1
Reply: Y

Task item: Then this compound: Nc1nc2c(ncn2[C@@H]2O[C@@H]3OCP(=O)(O)O[C@H]4[C@@H](O)[C@H](n5cnc6c(N)ncnc65)O[C@@H]4COP(=O)(O)O[C@@H]2[C@@H]3F)c(=O)[nH]1
Reply: Y

Task item: For C#Cc1cn([C@@H]2O[C@@H]3COP(=O)(O)O[C@@H]4[C@H](O)[C@@H](OCP(=O)(O)O[C@H]3[C@H]2O)O[C@H]4n2cnc3c(=O)[nH]c(N)nc32)c2ncnc(N)c12 then?
Reply: N

Task item: Also Nc1nc2c(ncn2[C@@H]2O[C@@H]3OCP(=O)(O)O[C@H]4[C@@H](F)[C@H](n5cnc6c(N)ncnc65)O[C@@H]4COP(=O)(O)O[C@@H]2[C@@H]3O)c(=O)[nH]1 ?
Reply: Y

Task item: Same read-out for Nc1nc2c(ncn2[C@@H]2O[C@@H]3OCP(=O)(O)O[C@H]4[C@@H](O)[C@H](n5ccc6c(N)ncnc65)O[C@@H]4COP(=O)(O)O[C@@H]2[C@@H]3O)c(=O)[nH]1 ?
Reply: N

Task item: Same again, this time with Nc1nc(N)c2ncn([C@@H]3O[C@@H]4COP(=O)(O)O[C@@H]5[C@H](O)[C@@H](OCP(=O)(O)O[C@H]4[C@H]3O)O[C@H]5n3cnc4c(=O)[nH]c(N)nc43)c2n1
Reply: N

Task item: Nc1ncnc2c1ncn2[C@@H]1O[C@@H]2OCP(=O)(O)O[C@@H]3[C@H](O)[C@@H](COP(=O)(O)O[C@H]2[C@H]1O)C[C@H]3n1cnc2c(=O)[nH]cnc21 ?
Reply: N
